Ref: patent US20170240637A1

- target: T1, 2Ig-B7H3 without Fc fusion (human, UniProt Q5ZPR3-2 29-245, limits assumed)
- T1 construct: also called 2IgB7H3 (R&D)
- T1 sequence (looked up): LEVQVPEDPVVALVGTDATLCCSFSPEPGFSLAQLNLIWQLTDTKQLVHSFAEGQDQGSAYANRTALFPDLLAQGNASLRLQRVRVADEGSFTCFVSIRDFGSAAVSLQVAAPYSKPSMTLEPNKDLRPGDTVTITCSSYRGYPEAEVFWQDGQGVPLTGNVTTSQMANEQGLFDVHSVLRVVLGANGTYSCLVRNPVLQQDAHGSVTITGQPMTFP
- protocol text: SPR, IgG on 2Ig-B7-H3 without Fc fusion
quantity measured: kon (M⁻¹ s⁻¹)
Numbers only, in M⁻¹ s⁻¹.

Ask: # kon lookup, item hu8H9 3.1 IgG1 (antibody, V domains shown, also called clone 3.1) VH: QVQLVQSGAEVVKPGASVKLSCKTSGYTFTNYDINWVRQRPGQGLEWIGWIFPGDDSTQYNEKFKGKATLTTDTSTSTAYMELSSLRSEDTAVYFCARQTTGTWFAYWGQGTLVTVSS VL: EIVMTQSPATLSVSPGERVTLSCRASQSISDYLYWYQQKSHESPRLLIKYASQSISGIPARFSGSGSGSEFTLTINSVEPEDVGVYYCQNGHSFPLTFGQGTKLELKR
Reply: 33900
